Origin of measurements: patent US11807625B2

Measurement Protocol: PK of compound of Formula (Ia) after single subcutaneous dose of solution formulations in Wistar Han rats
Assay type: in vivo
Condition Set: male, Wistar Han, rat, plasma, sc, 50 mg/kg, mean ± SD, n = 5 rats; SC 50 mg/kg; solution U, 500 mg/mL; read-out: AUC0-6048 h
Result Type: AUC(0-t) (µM·h)
One number for each entry, in µM·h.

Looking for the measured AUC(0-t) of CC(C)(C#Cc1ccc(-c2ccc(Cl)c3c(NS(C)(=O)=O)nn(CC(F)(F)F)c23)c([C@H](Cc2cc(F)cc(F)c2)NC(=O)Cn2nc(C(F)(F)F)c3c2C(F)(F)[C@@H]2C[C@H]32)n1)S(C)(=O)=O , can you help?
781

* * *

Measurement Protocol: PK of compound of Formula (Ia) after single subcutaneous dose of solution formulations in Wistar Han rats
Assay type: in vivo
Condition Set: male, Wistar Han, rat, plasma, sc, 50 mg/kg, Wistar Han rats, SC 50 mg/kg, 400 mg/mL solution AA (6.25% poloxamer 188), 840 h, animals #1-#4
Result Type: concentration at 840 h (nM)
Numbers only, in nM.

Looking for the measured concentration at 840 h of CC(C)(C#Cc1ccc(-c2ccc(Cl)c3c(NS(C)(=O)=O)nn(CC(F)(F)F)c23)c([C@H](Cc2cc(F)cc(F)c2)NC(=O)Cn2nc(C(F)(F)F)c3c2C(F)(F)[C@@H]2C[C@H]32)n1)S(C)(=O)=O [compound of Formula (Ia)] , can you help?
170

* * *

Measurement Protocol: PK of compound of Formula (Ia) after single subcutaneous dose of solution formulations in Wistar Han rats
Format: in vivo
Condition Set: male, Wistar Han, rat, plasma, sc, 50 mg/kg, 2352 h; mean, n = 3 rats; SC 50 mg/kg; solution V, 300 mg/mL
Result Type: concentration at 2352 h
I'd appreciate it if you included the unit after the number.

Looking for the measured concentration at 2352 h of CC(C)(C#Cc1ccc(-c2ccc(Cl)c3c(NS(C)(=O)=O)nn(CC(F)(F)F)c23)c([C@H](Cc2cc(F)cc(F)c2)NC(=O)Cn2nc(C(F)(F)F)c3c2C(F)(F)[C@@H]2C[C@H]32)n1)S(C)(=O)=O [compound of Formula (Ia)] , can you help?
165 nM

* * *

Measurement Protocol: PK of compound of Formula (Ia) after single subcutaneous dose of solution formulations in Wistar Han rats
Assay type: in vivo
Condition Set: male, Wistar Han, rat, plasma, sc, 50 mg/kg, Wistar Han rats, SC 50 mg/kg, 400 mg/mL solution AA (6.25% poloxamer 188), 24.0 h, animals #1-#4
Description: Formulations containing the compound of Formula (Ia), or a pharmaceutically acceptable salt thereof, were prepared as solutions and optionally administered subcutaneously or intramuscularly to rats, rabbits, and/or dogs. A solution of about 400 mg/mL of the compound of Formula (Ia) having 19.14 w/w % water, 40.66 w/w % PEG 300, 35.20 w/w % of a sodium salt of a compound of Formula (Ia), and 5.00% ethanol was prepared. […]
Result Type: concentration at 24 h (nM)
Numbers only, in nM.

Looking for the measured concentration at 24 h of CC(C)(C#Cc1ccc(-c2ccc(Cl)c3c(NS(C)(=O)=O)nn(CC(F)(F)F)c23)c([C@H](Cc2cc(F)cc(F)c2)NC(=O)Cn2nc(C(F)(F)F)c3c2C(F)(F)[C@@H]2C[C@H]32)n1)S(C)(=O)=O [compound of Formula (Ia)] , can you help?
259

* * *

Measurement Protocol: PK of compound of Formula (Ia) after single subcutaneous dose of solution formulations in beagle dogs
Assay type: in vivo
Condition Set: male, beagle, dog, plasma, sc, 12 mg/kg, male beagle dogs, single SC 12 mg/kg, 500 mg/mL solution X (5.00% ethanol, 1.91% poloxamer 188), mean ± SD, n = 3; read-out: AUC0-4032 h
Result Type: AUC(0-t) (µM·h)
Answers are plain numbers, in µM·h.

Looking for the measured AUC(0-t) of CC(C)(C#Cc1ccc(-c2ccc(Cl)c3c(NS(C)(=O)=O)nn(CC(F)(F)F)c23)c([C@H](Cc2cc(F)cc(F)c2)NC(=O)Cn2nc(C(F)(F)F)c3c2C(F)(F)[C@@H]2C[C@H]32)n1)S(C)(=O)=O , can you help?
145

* * *

Measurement Protocol: PK of compound of Formula (Ia) after single subcutaneous dose of solution formulations in Wistar Han rats
Format: in vivo
Condition Set: male, Wistar Han, rat, plasma, sc, 50 mg/kg, Wistar Han rats, SC 50 mg/kg, 400 mg/mL solution W (5.00% ethanol, 1.57% poloxamer 188), 168 h, Mean n = 3
Result Type: concentration at 168 h (nM)
Numbers only, in nM.

Looking for the measured concentration at 168 h of CC(C)(C#Cc1ccc(-c2ccc(Cl)c3c(NS(C)(=O)=O)nn(CC(F)(F)F)c23)c([C@H](Cc2cc(F)cc(F)c2)NC(=O)Cn2nc(C(F)(F)F)c3c2C(F)(F)[C@@H]2C[C@H]32)n1)S(C)(=O)=O [compound of Formula (Ia)] , can you help?
118

* * *

Measurement Protocol: PK of compound of Formula (Ia) after single subcutaneous dose of solution formulations in Wistar Han rats
Assay type: in vivo
Condition Set: male, Wistar Han, rat, plasma, sc, 50 mg/kg, Wistar Han rats, SC 50 mg/kg, 400 mg/mL solution Z (3.13% poloxamer 188), 48.0 h, Mean n = 4
Result Type: concentration at 48 h (nM)
One number for each entry, in nM.

Looking for the measured concentration at 48 h of CC(C)(C#Cc1ccc(-c2ccc(Cl)c3c(NS(C)(=O)=O)nn(CC(F)(F)F)c23)c([C@H](Cc2cc(F)cc(F)c2)NC(=O)Cn2nc(C(F)(F)F)c3c2C(F)(F)[C@@H]2C[C@H]32)n1)S(C)(=O)=O , can you help?
165

* * *

Measurement Protocol: PK of compound of Formula (Ia) after single subcutaneous dose of solution formulations in Wistar Han rats
Type: in vivo
Condition Set: male, Wistar Han, rat, plasma, sc, 50 mg/kg, 3.00 h; individual rats; SC 50 mg/kg; solution R, 400 mg/mL
Result Type: concentration at 3 h (nM)
Answers are plain numbers, in nM.

Looking for the measured concentration at 3 h of CC(C)(C#Cc1ccc(-c2ccc(Cl)c3c(NS(C)(=O)=O)nn(CC(F)(F)F)c23)c([C@H](Cc2cc(F)cc(F)c2)NC(=O)Cn2nc(C(F)(F)F)c3c2C(F)(F)[C@@H]2C[C@H]32)n1)S(C)(=O)=O [compound of Formula (Ia)] , can you help?
128

* * *

Measurement Protocol: PK of compound of Formula (Ia) after single subcutaneous dose of solution formulations in Wistar Han rats
Type: in vivo
Condition Set: male, Wistar Han, rat, plasma, sc, 50 mg/kg, 1680 h; mean, n = 3 rats; SC 50 mg/kg; solution R, 400 mg/mL
Result Type: concentration at 1680 h (nM)
One number for each entry, in nM.

Looking for the measured concentration at 1680 h of CC(C)(C#Cc1ccc(-c2ccc(Cl)c3c(NS(C)(=O)=O)nn(CC(F)(F)F)c23)c([C@H](Cc2cc(F)cc(F)c2)NC(=O)Cn2nc(C(F)(F)F)c3c2C(F)(F)[C@@H]2C[C@H]32)n1)S(C)(=O)=O , can you help?
277

* * *

Measurement Protocol: PK of compound of Formula (Ia) after single subcutaneous dose of solution formulations in Wistar Han rats
Assay type: in vivo
Condition Set: male, Wistar Han, rat, plasma, sc, 50 mg/kg, Wistar Han rats, SC 50 mg/kg, 400 mg/mL solution Z (3.13% poloxamer 188), 3360 h, animals #1, #3, #4 (#2 NS)
Result Type: concentration at 3360 h
I'd appreciate it if you included the unit after the number.

Looking for the measured concentration at 3360 h of CC(C)(C#Cc1ccc(-c2ccc(Cl)c3c(NS(C)(=O)=O)nn(CC(F)(F)F)c23)c([C@H](Cc2cc(F)cc(F)c2)NC(=O)Cn2nc(C(F)(F)F)c3c2C(F)(F)[C@@H]2C[C@H]32)n1)S(C)(=O)=O , can you help?
109 nM

* * *

Measurement Protocol: PK of compound of Formula (Ia) after single subcutaneous dose of solution formulations in beagle dogs
Type: in vivo
Condition Set: male, beagle, dog, plasma, sc, 12 mg/kg, 2352 h; mean, n = 3 dogs; SC 12 mg/kg; solution T, 400 mg/mL
Result Type: concentration at 2352 h (nM)
Numbers only, in nM.

Looking for the measured concentration at 2352 h of CC(C)(C#Cc1ccc(-c2ccc(Cl)c3c(NS(C)(=O)=O)nn(CC(F)(F)F)c23)c([C@H](Cc2cc(F)cc(F)c2)NC(=O)Cn2nc(C(F)(F)F)c3c2C(F)(F)[C@@H]2C[C@H]32)n1)S(C)(=O)=O , can you help?
6
